assayMetric: melting point

Field: example entries. Status: answers known.
Param item = `COc1ccc2nc(C)cc(O)c2c1` ; retrieve measured melting point.
284 to 286 °C

# input molecule: `c1ccc2oc(C3CCNCC3)nc2c1` ; wanted: its melting point
111 to 113 °C

Can you share its melting point? I mean this molecule: `Cn1cc(Nc2cccc(N)c2)cn1`
92 to 94 °C

Name the reported melting point value associated with the molecule `O=C1OCc2c1cccc2S(=O)(=O)Cl`
124 to 126 °C

Find the recorded melting point belonging to `CC(=O)NCc1ccc(S(=O)(=O)Cl)s1` and report it.
80 to 82 °C

Please report the recorded melting point for `O=C(c1ccc2c(c1)CCO2)c1cc(Cl)ccc1Cl` .
81 to 83 °C

Moving on to another molecule below.
I am curious: what melting point value has been reported for `NC(=O)c1cc(Br)ccc1N` ?
183 to 185 °C
